# System: Rat 6 subclone of the immortalized F2408 embryo cell line (R6)
# TEST DETAILS: Screening for cytotoxicity, cell count by Coulter Counter, R6 cells
# Type: cell-based
# COND: Table VA, day 6 after addition
# Experimental: Compounds of the invention were screened against Rat 6 subclone of the immortalized F2408 embryo cell line, and Rat 6 (R6T24) cells transfected and transformed by a c-H-ras oncogene. The screening involved placing the R6 and R6T24 cell lines plated at 10^3 cells per well into a 12-well microtiter culture plate for 24 hours. The compounds were added at final concentrations from 0.1-100 μM, and cells were trypsized and counted by Coulter Counter at day 3 and day 6 after the addition. […]
I'd appreciate it if you marked entries Y when LD50 (Day 6) R6 is lower than 0.3 µM and N when it is not.

Example cases with answers are listed next.
COMPOUND	LABEL VALUE
C[C@@H]1CC[C@H]2[C@@H](C)C(Nc3ccc(F)cc3)O[C@@H]3O[C@@]4(C)CC[C@@H]1[C@]32OO4 (some centres unmarked) [Example 31]	Y
C[C@@H]1CC[C@H]2[C@@H](C)C(Nc3ccccc3)O[C@@H]3O[C@@]4(C)CC[C@@H]1[C@]32OO4 (some centres unmarked) [Example 30]	Y
CC1CC[C@H]2[C@@H](C)C(=O)NC3O[C@]4(C)CCC1C32OO4 (some centres unmarked) [Example 14, 11-azaartemisinin]	N

Is it true that LD50 (Day 6) R6 reported for COc1cc(OC)c(C2OC3OC4(C)CCC5C(C)CCC(C2C)C35OO4)c(OC)c1 (mixture of isomers) [Example 27] is less than 0.3 µM?
N

Now consider COc1ccc(C2OC3OC4(C)CCC5C(C)CCC(C2C)C35OO4)c(OC)c1 (centres unmarked) [Example 4] and answer again.
Y

Now consider C[C@@H]1CC[C@H]2[C@@H](C)C(N3CCN(C)CC3)O[C@@H]3O[C@@]4(C)CC[C@@H]1[C@]32OO4 (some centres unmarked) [Example 51] and answer again.
Y

Now consider C[C@H]1[C@H](OC(=O)CCC(=O)O)O[C@@H]2O[C@@]3(C)CC[C@H]4[C@H](C)CC[C@@H]1[C@@]24OO3 [Artesunate, artesunate, reference compound] and answer again.
N

Now consider CC1CCC2C(C)C(F)OC3OC4(C)CCC1C32OO4 (stereo not drawn) [Example 1, 10β-fluoro-10-deoxodihydroartemisinin] and answer again.
N

Now consider CC1CCC2C(C)C(OCC(F)(F)F)OC3OC4(C)CCC1C32OO4 (centres unmarked) [Example 11] and answer again.
N

Now consider CC1CCC2[C@@H](C)C(O)OC3O[C@]4(C)CCC1C32OO4 (some centres unmarked) [Dihydroartemisinin, dihydroartemisinin, reference compound] and answer again.
N

Now consider CC1CCC2C(CN3CCc4ccccc43)C(=O)OC3OC4(C)CCC1C32OO4 (centres unmarked) [Example 22, 16-(N-1′-indolinyl)artemisinin] and answer again.
N

----------
# Tested on: Rat 6 subclone of the immortalized F2408 embryo cell line (R6)
# TEST DETAILS: Screening for cytotoxicity, cell count by Coulter Counter, R6 cells
# Assay type: cell-based
# COND: Table V, day 3 after addition
READOUT: LD50 (Day 3) R6 (µM)
Express it in µM; write the number only.

>>> df
                                   molecule  result_value
0  C[C@@H]1CC[C@H]2[C@@H](C)C(=O)N(Cc3ccccc3F)[C@@H]3O[C@@]4(C)CC[C@@H]1[C@@]23OO4         22.70

Note: attention shifts to another entry.
# lookup: LD50 (Day 3) R6 of C[C@@H]1CC[C@H]2[C@@H](C)C(Nc3ccccc3)O[C@@H]3O[C@@]4(C)CC[C@@H]1[C@]32OO4 (stereo partly drawn)
0.31
